Molecular target: Prostaglandin G/H synthase 2 (Homo sapiens)
Sequence (whole entry): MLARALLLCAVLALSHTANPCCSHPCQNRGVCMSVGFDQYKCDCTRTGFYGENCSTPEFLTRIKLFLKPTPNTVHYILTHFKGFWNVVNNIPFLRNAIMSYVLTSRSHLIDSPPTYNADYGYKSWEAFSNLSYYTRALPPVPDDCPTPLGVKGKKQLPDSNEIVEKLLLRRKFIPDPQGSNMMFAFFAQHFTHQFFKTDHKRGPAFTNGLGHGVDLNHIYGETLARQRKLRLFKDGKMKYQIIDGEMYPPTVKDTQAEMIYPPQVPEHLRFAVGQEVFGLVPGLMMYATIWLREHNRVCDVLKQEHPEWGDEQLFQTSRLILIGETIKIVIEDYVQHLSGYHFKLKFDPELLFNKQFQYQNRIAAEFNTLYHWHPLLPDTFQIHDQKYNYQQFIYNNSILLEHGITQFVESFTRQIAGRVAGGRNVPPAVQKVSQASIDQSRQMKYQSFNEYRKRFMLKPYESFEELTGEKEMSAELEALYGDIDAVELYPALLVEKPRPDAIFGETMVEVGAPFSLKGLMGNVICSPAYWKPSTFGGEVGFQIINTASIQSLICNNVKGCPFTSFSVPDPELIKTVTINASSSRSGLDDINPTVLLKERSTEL
Assay: Inhibition of human recombinant COX2 assessed as remaining activity at 10 uM relative to control
molecules and their reported Activity
Measured endpoint: Activity (%)

{"Molecule": "CCCCCCC(Sc1nc(Cl)cc(Nc2ccc3ncccc3c2)n1)C(=O)OCC (stereo not drawn)", "Measured endpoint": "Activity", "Assay value": 61.7}
{"Molecule": "Cc1cccc(Nc2cc(Cl)nc(SC(C(=O)O)c3cccc4ccccc34)n2)c1C (stereo not drawn)", "Measured endpoint": "Activity", "Assay value": 32.5}
{"Molecule": "CCCCCCC(Sc1nc(Cl)cc(Nc2cc(OCC(F)(F)F)cc(OCC(F)(F)F)c2)n1)C(=O)O (stereo not drawn)", "Measured endpoint": "Activity", "Assay value": 70.4}
{"Molecule": "CCCCCCC(Sc1nc(Cl)cc(Nc2ccc(-c3ccc(C#N)cc3)cc2)n1)C(=O)O (stereo not drawn)", "Measured endpoint": "Activity", "Assay value": 61.2}
{"Molecule": "CCCCCCC(Sc1nc(Cl)cc(Nc2cccc(C)c2C)n1)C(=O)O (stereo not drawn)", "Measured endpoint": "Activity", "Assay value": 62}
{"Molecule": "CCCCCCC(Sc1nc(Cl)cc(Nc2ccc(-c3ccccc3)cc2)n1)C(=O)O (stereo not drawn)", "Measured endpoint": "Activity", "Assay value": 57.1}
{"Molecule": "CCCCCCC(Sc1nc(Cl)cc(Nc2cc(C)c(-c3ccccc3)cc2OC)n1)C(=O)O (stereo not drawn)", "Measured endpoint": "Activity", "Assay value": 53.7}
{"Molecule": "CCCCCCC(Sc1nc(Cl)cc(NCc2ccc(-c3ccccc3)cc2)n1)C(=O)O (stereo not drawn)", "Measured endpoint": "Activity", "Assay value": 61.3}
